Source of measurements: the supplement of paper PMC10567573

Below: a set of entries, each annotated with reported protein stability index.
B1: P2RY14 (parent)
chain: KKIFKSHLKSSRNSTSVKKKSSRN

- Variants of: B1
- experiment: protein stability index of a GFP-peptide fusion (GPS, HEK-293T) (PSI 1-6); higher = more stable;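 further: lentivirally expressed fusions sorted by FACS into six bins by GFP to DsRed ratio, PSI derived from sequencing read proportions per bin multiplied by bin number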
- testSettings: c terminus: a fixed tail appended

>  <mutation>
S21P

>  <protein stability index>
3.72

$$$$
>  <mutation>
R23E

>  <protein stability index>
4.18

$$$$
>  <mutation>
N24V

>  <protein stability index>
4.11

$$$$
>  <mutation>
N13H

>  <protein stability index>
3.52

$$$$
>  <mutation>
T15F

>  <protein stability index>
3.52

$$$$
>  <mutation>
S6R

>  <protein stability index>
4.49

$$$$
>  <mutation>
N24M

>  <protein stability index>
3.3

$$$$
>  <mutation>
T15G

>  <protein stability index>
4.31

$$$$
>  <mutation>
H7W

>  <protein stability index>
3.3

$$$$
>  <mutation>
R12F

>  <protein stability index>
3.83

$$$$
>  <mutation>
K19S

>  <protein stability index>
3.9

$$$$
>  <mutation>
K9M

>  <protein stability index>
4

$$$$
>  <mutation>
K9H

>  <protein stability index>
4.41

$$$$
>  <mutation>
K2G

>  <protein stability index>
4.12

$$$$
>  <mutation>
R12Y

>  <protein stability index>
3.39

$$$$
>  <mutation>
R12E

>  <protein stability index>
4.08

$$$$
>  <mutation>
R23Q

>  <protein stability index>
4.38

$$$$
>  <mutation>
S14H

>  <protein stability index>
4.35

$$$$
>  <mutation>
K9T

>  <protein stability index>
3.98

$$$$
>  <mutation>
I3S

>  <protein stability index>
4.6

$$$$
>  <mutation>
K9E

>  <protein stability index>
4.51

$$$$
>  <mutation>
I3C

>  <protein stability index>
4.27

$$$$
